%Inh reference
system: PFTK1; construct: gene CDK14; conditions: concentration: 1 μM, replicates: in singlicate; n = 1;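 further: KINOMEscan kinase panel screen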
Numbers only; they are read as %.

A selection of reference data follows.
# molecule, units.of.measure, reported.value
rows = [
    ("Cc1c(O)cccc1Nc1ccnc2ccc(C(F)(F)F)cc12.Cl [GW466413]", "%", 0),
    ("Nc1nc(-c2nccs2)c(-c2ccnc3ccccc23)s1 [GW693542]", "%", 17),
]

Which %Inh value belongs to COc1ccc2nc(-c3cccc(C)n3)nc(Nc3ccncc3)c2c1 [GSK204919] ?
14

Would you mind telling me what %Inh value was observed for COc1cccc(-c2cc(-c3c[nH]nc3-c3ccccn3)ccn2)c1 [GW680338] ?
1

Query: %Inh; subject: `COC(=O)c1c(-c2ccccc2)c2cc(C(=O)O)ccc2c(=O)n1Cc1ccccc1`
0

Data request, read-out %Inh, for Cc1cccc(-c2nc(Nc3cccc(C(N)=O)c3)c3ccccc3n2)n1 [GW876019]
0

# query: %Inh of entry COc1ccc(Nc2nccc(-c3cccc(NC(=O)c4cc5cc(F)ccc5[nH]4)c3)n2)cc1 [GSK1229782]
24

Need %Inh, item CN(C)CCN(C)C(=O)c1cc(-c2ccncc2)c(-c2ccc(Cl)c(O)c2)o1.Cl.Cl [SB-710397]
0

What value of measured %Inh is listed for Cc1cc(NCC(c2ccccc2)c2ccccc2)nc(NCc2ccc(C(F)(F)F)cc2)n1 [GW497681] ?
18

* * *

system: FGFR3; settings: concentration: 1 μM, replicates: in singlicate; n = 1
endpoint.name: %Inh (%)
Please state the figure in %; there is no need to write the unit.

See these solved cases before continuing.
# compound, %Inh [%]
measured = [
    ("COc1ccccc1-c1ccc2c(NC(=O)C3CC3)n[nH]c2n1", 8),
    ("CN(C)CCN(C)C(=O)c1cc(-c2ccncc2)c(-c2ccc(Cl)c(O)c2)o1.Cl.Cl", 5),
]

Record `Cc1ccc(C(=O)Nc2ccc(Nc3ccnc4cc(-c5ccccn5)ccc34)cc2O)cc1.Cl` : what is its %Inh with FGFR3?
0

Enter reported %Inh observed with FGFR3 for `CS(=O)(=O)c1ccc(-c2c(-c3ncn[nH]3)sc(N3CCOCC3)c2C#N)cc1`
5

* * *

system: MAP3K4; details: concentration: 1 μM, replicates: in singlicate; n = 1
endpoint.name: %Inh (%)
Field format: number, assumed %, no unit text.

# compound, %Inh (%)
records = [
    ("COc1ccccc1CNC(=O)c1cc(C(=O)c2ccccc2C)c[nH]1", 32),
    ("Cn1ccc2ncnc(Oc3ccc(NC(=O)Nc4ccccc4)cc3)c21", 10),
    ("Cc1cccc(-c2cc(Nc3ccncc3)c3ccccc3n2)n1", 21),
]

Looking for the measured %Inh of COc1cccc(NC(=O)NC2CCN(c3ccnc(Nc4ccc(F)cc4)n3)C2)c1 (stereo not shown) , can you help?
13

Look up %Inh for this compound: `CS(=O)(=O)c1ccc(-c2nc3n(c2-c2ccncc2)CCC3)cc1`
35

Bench note: what %Inh did `Fc1cccc(COc2nnc(-c3ccc4c(c3)CCO4)o2)c1` show?
0

# get_value(readout='%Inh', item= `O=C(O)COc1ncnc2cc(-c3ccc4[nH]ncc4c3)sc12` )
4

Returns the measured %Inh for the input compound. Input: `O=C1NC(=O)C(N2CCc3ccccc32)=C1c1ccccc1Cl`
29

Recorded %Inh for `CCn1c(-c2cccnc2O)nc2cnccc21` , please?
0

Fill blank: measured %Inh of the compound `Cc1ccc(-c2cc(-c3c[nH]nc3-c3ccccn3)ccn2)cc1` is ____.
4
